Test: Plasma and brain concentration in samples of in vivo IP1 assay
Parameters: species or system mouse
Condition set: mouse, plasma, oral, 10 mg/kg, 10 mg/kg p.o., wild-type mice, 3 h, mean±SD; read-out: Plasma concentration
Measurement name: concentration at 3 h (ng/mL)

1) Cn1cc(-c2ccc(Cc3cc4c(=O)n([C@H]5CCCC[C@@H]5O)cnc4c4ccccc34)cn2)cn1 [Compound C, reference compound] | 2340

* * *

Measured α-value by item
Experimental target: UniProt P11229
Sequence (P11229 whole entry): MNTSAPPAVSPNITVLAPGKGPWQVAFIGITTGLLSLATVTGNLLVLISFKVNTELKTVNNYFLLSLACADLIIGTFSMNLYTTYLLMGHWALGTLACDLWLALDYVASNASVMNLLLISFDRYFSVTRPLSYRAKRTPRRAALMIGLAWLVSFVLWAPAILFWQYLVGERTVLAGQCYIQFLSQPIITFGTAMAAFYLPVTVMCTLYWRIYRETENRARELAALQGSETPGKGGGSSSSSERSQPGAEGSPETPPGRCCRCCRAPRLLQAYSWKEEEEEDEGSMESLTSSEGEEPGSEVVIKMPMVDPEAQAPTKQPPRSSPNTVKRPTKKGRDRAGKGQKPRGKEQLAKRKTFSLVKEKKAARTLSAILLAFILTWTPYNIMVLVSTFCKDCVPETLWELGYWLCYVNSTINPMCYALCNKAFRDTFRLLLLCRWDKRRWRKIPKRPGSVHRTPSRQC
Test: Binding modulation assay, displacement of [3H]-pirenzepine by ACh, FreeStyle 293 cell membranes
Set-up: expressed in transfected cells; host or cells: FreeStyle 293 cells (transient), cell membranes
Condition set: binding cooperativity between ACh and PAM
Measurement name: α-value

1) Cc1c(Cc2ccc(-n3cccn3)cc2)cc2c(c1F)CN([C@H]1COCC[C@@H]1O)C2=O | 199
2) Cn1cc(-c2ccc(Cc3cc4c(=O)n([C@H]5CCCC[C@@H]5O)cnc4c4ccccc34)cn2)cn1 [Compound C, reference compound] | 1786
3) Cn1cc(-c2ccc(CN3Cc4cccc(Oc5c(F)cccc5C#N)c4C3=O)cc2)cn1 | 16
4) Cn1ccc(-c2ccc(CN3Cc4cccc(O[C@H]5CCCC[C@@H]5O)c4C3=O)cc2)n1 | 2371
